Target: Poly [ADP-ribose] polymerase 1 (Homo sapiens, UniProt P09874)
Sequence (P09874 whole entry): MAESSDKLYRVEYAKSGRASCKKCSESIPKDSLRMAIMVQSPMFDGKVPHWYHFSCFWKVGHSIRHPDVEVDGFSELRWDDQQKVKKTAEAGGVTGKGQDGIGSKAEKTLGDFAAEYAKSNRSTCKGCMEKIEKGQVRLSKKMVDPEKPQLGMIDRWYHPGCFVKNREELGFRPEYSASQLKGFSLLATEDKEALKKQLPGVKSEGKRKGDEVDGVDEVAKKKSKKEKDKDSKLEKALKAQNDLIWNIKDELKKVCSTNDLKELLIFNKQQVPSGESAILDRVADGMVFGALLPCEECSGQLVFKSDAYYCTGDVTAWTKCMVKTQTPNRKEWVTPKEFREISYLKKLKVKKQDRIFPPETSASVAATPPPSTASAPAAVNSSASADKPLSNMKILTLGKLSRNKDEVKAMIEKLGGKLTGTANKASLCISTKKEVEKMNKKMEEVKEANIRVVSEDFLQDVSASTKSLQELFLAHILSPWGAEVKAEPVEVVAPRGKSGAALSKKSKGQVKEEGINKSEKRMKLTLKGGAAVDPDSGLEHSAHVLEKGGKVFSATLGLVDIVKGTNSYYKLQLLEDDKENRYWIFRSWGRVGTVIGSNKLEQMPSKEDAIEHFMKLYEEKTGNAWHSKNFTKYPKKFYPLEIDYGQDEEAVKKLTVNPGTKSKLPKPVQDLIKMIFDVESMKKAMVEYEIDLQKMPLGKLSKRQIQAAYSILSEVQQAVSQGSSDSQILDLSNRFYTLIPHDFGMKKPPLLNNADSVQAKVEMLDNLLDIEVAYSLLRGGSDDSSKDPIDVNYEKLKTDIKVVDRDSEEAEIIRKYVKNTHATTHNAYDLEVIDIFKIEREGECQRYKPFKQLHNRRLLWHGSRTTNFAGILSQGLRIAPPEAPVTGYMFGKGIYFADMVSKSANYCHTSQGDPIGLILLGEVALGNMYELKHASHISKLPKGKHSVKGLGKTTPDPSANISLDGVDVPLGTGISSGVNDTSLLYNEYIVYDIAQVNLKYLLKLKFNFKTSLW
Test: Inhibition of N-terminal 6His-tagged full-length recombinant human PARP1 by fluorescence anisotropy assay
measure: pIC50
Note on pIC50: it is the negative log10 of concentration, concentration in mol/L.

{"chemical.smiles": "CCc1cc2ccc(CN3CCN(c4cnc(C(=O)NC)cc4C)CC3)cc2[nH]c1=O", "measure": "pIC50", "assay.value": 8.22}
{"chemical.smiles": "CCc1nc2ccc(CN3CCN(c4ccc(F)nc4)CC3)cc2[nH]c1=O", "measure": "pIC50", "assay.value": 8.05}
{"chemical.smiles": "CCc1nc2ccc(CN3CCN(c4ccc(F)nc4C)CC3)cc2[nH]c1=O", "measure": "pIC50", "assay.value": 8.30}
{"chemical.smiles": "CCc1cc2ccc(CN3CCN(c4ccc(C(=O)NC)nc4C)CC3)cc2[nH]c1=O", "measure": "pIC50", "assay.value": 8.30}
{"chemical.smiles": "CNC(=O)c1ccc(N2CCN(Cc3ccc4c5c(c(=O)[nH]c4c3)COCC5)CC2)cn1", "measure": "pIC50", "assay.value": 8.40}
{"chemical.smiles": "CNC(=O)c1ccc(N2CCN(Cc3ccc4nc(C)c(=O)[nH]c4c3)CC2)c(F)n1", "measure": "pIC50", "assay.value": 8.10}

Q. // query pIC50 value for entry CCc1nc2ccc(CN3CCN(c4cnc(F)cc4C)CC3)cc2[nH]c1=O
A. 7.96

Data provenance is ChEMBL document CHEMBL6078698.
